Attribution: patent US20090012103A1

Target: wild-type human cardiac sodium channel, hNav1.5 (Homo sapiens)
Assay: Late INa screening assay (late sodium current, PatchXpress whole cell patch clamp)
Type: cell-based
Settings: compound at 10 μM; read-out: Late INa % blk
Each item that follows carries a reported inhibition at 10 µM.
Use % as the unit, but write only the number.

Worked examples follow.
molecule="CC1=C(C(=O)OCCOc2ccc(C(=O)O)cc2)C(c2cccc3ccccc23)n2nnnc2N1 (centres unmarked)" parameter="inhibition at 10 µM" test_value=14.4
molecule="CCOC(=O)C1=C(C)NC2=C(C(=O)CC(C)(C)C2)C1c1cccc(C(=O)O)c1 (centres unmarked)" parameter="inhibition at 10 µM" test_value=-5.3
molecule="CCOC(=O)C1=C(C)Nc2nnnn2C1c1ccccc1-c1ccc(-c2nnn[nH]2)cc1 (centres unmarked)" parameter="inhibition at 10 µM" test_value=2.7
molecule="CC1=C(C(=O)OCc2ccccc2)C(c2cc3ccccc3s2)C2=C(CCCC2=O)N1 (centres unmarked)" parameter="inhibition at 10 µM" test_value=58.1
molecule="CC1=C(C(=O)OCc2ccc(Oc3ccccc3)cc2)C(c2cccc3ccccc23)n2nnnc2N1 (centres unmarked)" parameter="inhibition at 10 µM" test_value=14.5

Asked: Return the recorded inhibition at 10 µM value; entry: CC1=C(C(=O)OCc2ccc(Cn3cccn3)cc2)C(c2cccc3ccccc23)n2nnnc2N1 (centres unmarked)
Given back: 61.2

Asked: Return the recorded inhibition at 10 µM value; entry: CC1=C(C(=O)OCc2ccccc2)C(c2ccc(C#N)cc2)n2nnnc2N1 (centres unmarked)
Given back: 42.7

Asked: Return the recorded inhibition at 10 µM value; entry: CC1=C(C(=O)OCc2ccccc2)C(c2cccc3ccccc23)n2nnnc2N1C (centres unmarked)
Given back: 52.7

###

Molecular target: wild-type human cardiac sodium channel, hNav1.5 (Homo sapiens, UniProt Q14524)
Sequence (Q14524 whole entry): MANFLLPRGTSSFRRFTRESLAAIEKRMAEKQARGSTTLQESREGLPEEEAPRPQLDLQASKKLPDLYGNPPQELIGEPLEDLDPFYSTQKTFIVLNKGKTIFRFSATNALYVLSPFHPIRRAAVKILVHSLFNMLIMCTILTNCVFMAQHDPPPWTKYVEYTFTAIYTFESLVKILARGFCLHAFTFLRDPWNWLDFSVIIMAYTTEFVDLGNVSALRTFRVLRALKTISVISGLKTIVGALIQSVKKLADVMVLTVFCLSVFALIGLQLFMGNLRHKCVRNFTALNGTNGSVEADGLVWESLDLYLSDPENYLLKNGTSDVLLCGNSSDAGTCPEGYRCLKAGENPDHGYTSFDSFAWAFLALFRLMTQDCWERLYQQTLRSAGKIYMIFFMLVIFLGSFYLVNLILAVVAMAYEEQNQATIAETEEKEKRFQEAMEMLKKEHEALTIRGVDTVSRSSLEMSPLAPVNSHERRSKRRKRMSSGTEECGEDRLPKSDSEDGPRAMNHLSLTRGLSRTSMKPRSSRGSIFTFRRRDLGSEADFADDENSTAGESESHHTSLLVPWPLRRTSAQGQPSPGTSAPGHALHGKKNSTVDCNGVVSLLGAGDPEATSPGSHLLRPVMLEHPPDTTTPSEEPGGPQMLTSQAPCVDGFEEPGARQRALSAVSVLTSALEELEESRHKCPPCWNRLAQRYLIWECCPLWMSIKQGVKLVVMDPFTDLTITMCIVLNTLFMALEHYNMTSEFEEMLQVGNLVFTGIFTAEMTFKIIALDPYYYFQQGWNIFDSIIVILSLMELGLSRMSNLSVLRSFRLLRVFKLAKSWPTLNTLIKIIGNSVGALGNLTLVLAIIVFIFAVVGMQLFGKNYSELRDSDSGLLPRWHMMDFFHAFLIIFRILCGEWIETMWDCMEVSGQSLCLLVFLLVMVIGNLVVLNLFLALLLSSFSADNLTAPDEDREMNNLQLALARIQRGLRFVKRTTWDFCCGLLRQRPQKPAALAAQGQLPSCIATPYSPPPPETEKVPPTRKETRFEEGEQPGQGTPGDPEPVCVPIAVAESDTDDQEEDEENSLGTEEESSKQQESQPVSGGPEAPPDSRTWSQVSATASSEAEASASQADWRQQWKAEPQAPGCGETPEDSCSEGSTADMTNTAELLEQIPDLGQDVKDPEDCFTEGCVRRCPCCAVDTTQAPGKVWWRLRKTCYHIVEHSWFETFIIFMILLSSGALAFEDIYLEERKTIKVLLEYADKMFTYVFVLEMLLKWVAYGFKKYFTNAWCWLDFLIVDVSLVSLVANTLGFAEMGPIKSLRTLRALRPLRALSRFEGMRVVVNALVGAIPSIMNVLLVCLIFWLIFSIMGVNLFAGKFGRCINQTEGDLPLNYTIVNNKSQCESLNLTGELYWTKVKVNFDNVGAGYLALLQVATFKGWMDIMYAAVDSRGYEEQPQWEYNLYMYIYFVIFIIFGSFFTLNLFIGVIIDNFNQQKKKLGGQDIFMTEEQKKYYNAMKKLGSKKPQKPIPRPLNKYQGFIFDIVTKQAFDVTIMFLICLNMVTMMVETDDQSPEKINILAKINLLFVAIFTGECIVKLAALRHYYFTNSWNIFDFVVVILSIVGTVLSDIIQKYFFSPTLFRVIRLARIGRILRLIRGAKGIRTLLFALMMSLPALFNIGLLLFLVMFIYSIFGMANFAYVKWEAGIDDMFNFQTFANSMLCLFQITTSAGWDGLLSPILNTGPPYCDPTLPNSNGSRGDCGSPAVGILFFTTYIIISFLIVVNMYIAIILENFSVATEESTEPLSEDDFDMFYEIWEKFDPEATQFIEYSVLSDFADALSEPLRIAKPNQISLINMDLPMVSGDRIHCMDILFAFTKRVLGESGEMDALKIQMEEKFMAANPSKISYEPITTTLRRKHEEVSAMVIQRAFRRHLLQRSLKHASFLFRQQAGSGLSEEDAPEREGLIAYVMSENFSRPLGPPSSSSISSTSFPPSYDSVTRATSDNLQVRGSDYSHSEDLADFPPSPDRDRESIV
Test: Late INa screening assay (late sodium current, PatchXpress whole cell patch clamp)
Assay type: cell-based
Details: compound at 10 μM; read-out: Late INa % blk
Each item that follows carries a reported inhibition at 10 µM.
Use % as the unit, but write only the number.

molecule="CC1=C(C(=O)N2CCC(c3ccccc3)CC2)C(c2ccc3ccccc3c2)C2=C(CCCC2=O)N1 (stereo not shown) [PT-169]" parameter="inhibition at 10 µM" units=% test_value=11.8

Asked: Return the recorded inhibition at 10 µM value; entry: CCOC(=O)C1=C(C)Nc2[nH]ncc2C1c1cccc2ccccc12 (stereo not shown) [PT-075]
Given back: 26.5

Asked: Return the recorded inhibition at 10 µM value; entry: COC(=O)C1=C(C)Nc2[nH]nc(C)c2C1c1nc(C)cs1 (stereo not shown) [PT-509]
Given back: 6.4

Asked: Return the recorded inhibition at 10 µM value; entry: CCC(OC(=O)C1=C(C)Nc2nnnn2C1c1cccc2ccccc12)c1ccccc1 (stereo not shown) [PT-063]
Given back: 47.5

###

Each item that follows carries a reported inhibition at 10 µM.
Molecular target: wild-type human cardiac sodium channel, hNav1.5 (Homo sapiens, UniProt Q14524)
Assay: Late INa screening assay (late sodium current, PatchXpress whole cell patch clamp)
Type: cell-based
Conditions: compound at 10 μM; read-out: Late INa % blk
Use % as the unit, but write only the number.

Worked examples follow.
compound="COc1ccc(C2C(C(=O)OCc3ccccc3)=C(C)Nc3nnnn32)c([N+](=O)[O-])c1 (centres unmarked) [PT-419]" test_value=44.2
compound="CCOC(=O)C1=C(C)NC(C)=C(C(=O)OCC)C1c1ccc(-c2ccc(Cl)cc2)o1 [PT-118]" test_value=-3.8
compound="CCOC(=O)c1ccc(N2CCN(C(=O)C3=C(C)NC4=C(C(=O)CCC4)C3c3cccc4ccccc34)CC2)cc1 (centres unmarked) [PT-452]" test_value=5.9
compound="CC1=C(C(=O)OCc2ccccc2)C(c2ccccc2-c2cccc(C(=O)O)c2)C2=C(CCCC2=O)N1 (centres unmarked) [PT-248]" test_value=27.2
compound="CCOC(=O)C1=C(C)Nc2nnnn2C1c1ccccc1-n1ccnc1C.Cl (centres unmarked) [PT-457, hydrochloride]" test_value=12.6
compound="CCOC(=O)C1=C(C)NC(C)=C(C(=O)OCC)C1c1ccsc1 [PT-110]" test_value=41.8

Asked: Return the recorded inhibition at 10 µM value; entry: CCOC(=O)C1=C(C)Nc2[nH]ncc2C1c1c(OC)cccc1OC (centres unmarked) [PT-446]
Given back: 7

Asked: Return the recorded inhibition at 10 µM value; entry: CCCC1=C(C(=O)OCC)C(c2ccsc2)C2=C(CC(C)(C)CC2=O)N1 (centres unmarked) [PT-151]
Given back: 35

###

Molecular target: wild-type human cardiac sodium channel, hNav1.5 (Homo sapiens)
Test: Late INa screening assay (late sodium current, PatchXpress whole cell patch clamp)
Format: cell-based
Conditions: compound at 10 μM; read-out: Late INa % blk
parameter: inhibition at 10 µM (%)
Use % as the unit, but write only the number.

Worked examples follow.
compound="CC1=C(C(=O)N[C@H](C)c2ccccc2)C(c2cccc3ccccc23)n2nnnc2N1 (stereo partly drawn) [PT-070]" study_system="wild-type human cardiac sodium channel, hNav1.5 (Homo sapiens)" units=% test_value=9.9
compound="CC1=C(C(=O)OCc2ccccc2)C(c2occc2Br)n2nnnc2N1 (stereo not drawn) [PT-400]" study_system="wild-type human cardiac sodium channel, hNav1.5 (Homo sapiens)" units=% test_value=53.2

Asked: Provide the reported inhibition at 10 µM (system: wild-type human cardiac sodium channel, hNav1.5 (Homo sapiens)) for CC1=C(C(=O)OCc2ccccc2)C(c2ccccc2-c2cnc(N)nc2)n2nnnc2N1 (stereo not drawn) [PT-375]
Given back: 50.7

Asked: Provide the reported inhibition at 10 µM (system: wild-type human cardiac sodium channel, hNav1.5 (Homo sapiens)) for CC1=C(C(=O)OC(C)C)C(c2ccc3ccccc3c2)C2=C(CCCC2=O)N1 (stereo not drawn) [PT-157]
Given back: 62.3

###

Biological target: wild-type human cardiac sodium channel, hNav1.5 (Homo sapiens, UniProt Q14524)
Test: Late INa screening assay (late sodium current, PatchXpress whole cell patch clamp)
Assay type: cell-based
Details: compound at 10 μM; read-out: Late INa % blk
parameter: inhibition at 10 µM (%)
Use % as the unit, but write only the number.

molecule="CCOC(=O)C1=C(C)Nc2nnnn2C1c1ccccc1Oc1cccc(C(=O)OCC)c1 (centres unmarked) [PT-479]" test_value=35.7
molecule="CC1=C(C(=O)OC(C)(C)C)C(c2cccc3ccccc23)n2nnnc2N1 (centres unmarked) [PT-023]" test_value=32.8
molecule="CC1=C(C(=O)OC(C)Cc2ccccc2)C(c2cccc3ccccc23)n2nnnc2N1 (centres unmarked) [PT-064]" test_value=79.5
molecule="CC1=C(C(=O)OCc2ccccc2)C(c2ccc(OCCN(C)C)cc2)n2nnnc2N1 (centres unmarked) [PT-405]" test_value=18.4

Continue with the next molecule.
Asked: Return the recorded inhibition at 10 µM value; entry: CCOC(=O)C1=C(C)Nc2nnnn2C1c1cccc(C2C(C(=O)OCC)=C(C)Nc3nnnn32)c1 (centres unmarked) [PT-202]
Given back: 9.7

###

Each item that follows carries a reported hERG Patch Clamp hERG % blk.
Molecular target: hERG potassium channel (Homo sapiens, UniProt Q12809)
Sequence (Q12809 whole entry): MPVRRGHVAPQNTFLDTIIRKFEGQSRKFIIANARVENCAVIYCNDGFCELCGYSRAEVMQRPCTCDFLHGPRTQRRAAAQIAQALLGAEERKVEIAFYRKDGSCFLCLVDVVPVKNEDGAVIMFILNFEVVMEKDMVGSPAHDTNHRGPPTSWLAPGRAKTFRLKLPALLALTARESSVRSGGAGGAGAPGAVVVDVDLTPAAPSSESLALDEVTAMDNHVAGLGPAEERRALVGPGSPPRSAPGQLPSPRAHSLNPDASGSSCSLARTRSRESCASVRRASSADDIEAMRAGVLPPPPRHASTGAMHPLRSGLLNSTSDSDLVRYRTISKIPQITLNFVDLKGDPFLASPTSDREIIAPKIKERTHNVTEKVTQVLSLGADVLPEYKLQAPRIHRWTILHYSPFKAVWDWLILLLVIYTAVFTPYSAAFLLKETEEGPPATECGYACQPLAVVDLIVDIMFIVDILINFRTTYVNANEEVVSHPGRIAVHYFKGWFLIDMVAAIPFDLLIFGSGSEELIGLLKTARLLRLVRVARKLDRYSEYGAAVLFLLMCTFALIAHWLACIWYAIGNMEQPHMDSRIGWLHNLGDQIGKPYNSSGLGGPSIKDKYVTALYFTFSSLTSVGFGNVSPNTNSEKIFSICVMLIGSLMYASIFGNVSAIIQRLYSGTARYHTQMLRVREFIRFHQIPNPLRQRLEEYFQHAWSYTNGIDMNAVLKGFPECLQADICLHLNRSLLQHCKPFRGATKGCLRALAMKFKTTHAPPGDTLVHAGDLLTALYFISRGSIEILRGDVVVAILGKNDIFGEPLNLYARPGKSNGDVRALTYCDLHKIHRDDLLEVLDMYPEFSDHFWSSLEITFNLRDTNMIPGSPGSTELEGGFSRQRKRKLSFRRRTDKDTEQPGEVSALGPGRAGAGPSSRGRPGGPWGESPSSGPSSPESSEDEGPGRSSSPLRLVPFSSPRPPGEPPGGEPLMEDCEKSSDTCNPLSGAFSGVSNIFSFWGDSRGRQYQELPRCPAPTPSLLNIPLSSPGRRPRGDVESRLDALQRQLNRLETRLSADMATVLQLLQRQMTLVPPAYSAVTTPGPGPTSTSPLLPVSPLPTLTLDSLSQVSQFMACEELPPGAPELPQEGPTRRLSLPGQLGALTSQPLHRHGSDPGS
Assay: hERG screening assay (PatchXpress patch clamp, CHO cell line)
Conditions: 1 μM
Use % as the unit, but write only the number.

Worked examples follow.
molecule="CCOC(=O)C1=C(C)NC2=C(C(=O)CCC2)C1c1cccc2ncccc12 (stereo not drawn) [PT-140]" parameter="hERG Patch Clamp hERG % blk" test_value=13.5
molecule="CC1=C(C(=O)OC(C)C)C(c2cccc3ccccc23)C(C(=O)OC(C)C)=C(C)N1 [PT-123]" parameter="hERG Patch Clamp hERG % blk" test_value=10.0

Continue with the next molecule.
Asked: Return the recorded hERG Patch Clamp hERG % blk value; entry: CCOC(=O)C1=C(C)Nc2nnnn2C1c1cccc2ccccc12 (stereo not drawn) [PT-192]
Given back: 23.0

###

Each item that follows carries a reported inhibition at 10 µM.
Biological target: wild-type human cardiac sodium channel, hNav1.5 (Homo sapiens, UniProt Q14524)
Assay: Late INa screening assay (late sodium current, PatchXpress whole cell patch clamp)
Format: cell-based
Details: compound at 10 μM; read-out: Late INa % blk
Use % as the unit, but write only the number.

Worked examples follow.
compound="CCOC(=O)C1=C(C)NC(C)=C(C(=O)OCC)C1c1cccc(-c2ccccc2)c1 [PT-439]" study_system="wild-type human cardiac sodium channel, hNav1.5 (Homo sapiens, UniProt Q14524)" test_value=56.1
compound="CC1=C(C(=O)OCc2ccc(Cn3cccn3)cc2)C(c2ccc(N(C)C)c3ccccc23)n2nnnc2N1 (centres unmarked) [PT-283]" study_system="wild-type human cardiac sodium channel, hNav1.5 (Homo sapiens, UniProt Q14524)" test_value=11.4

Asked: Provide the reported inhibition at 10 µM (system: wild-type human cardiac sodium channel, hNav1.5 (Homo sapiens, UniProt Q14524)) for CC1=C(C(=O)OCc2ccccc2)C(c2cccc3c2OCO3)n2nnnc2N1 (centres unmarked) [PT-034]
Given back: 52.4

Asked: Provide the reported inhibition at 10 µM (system: wild-type human cardiac sodium channel, hNav1.5 (Homo sapiens, UniProt Q14524)) for CCOC(=O)C1=C(C)NC(C)=C(C(=O)OCC)C1c1ccccc1-c1ccc(NS(C)(=O)=O)cc1 [PT-428]
Given back: 45.1

Asked: Provide the reported inhibition at 10 µM (system: wild-type human cardiac sodium channel, hNav1.5 (Homo sapiens, UniProt Q14524)) for CC1=C(C(=O)OCc2ccccc2)C(c2ccccc2)c2ccccc2N1 (centres unmarked) [PT-321]
Given back: 48.3
